Cited source: patent US20240316038A1

- subject_of_test: APOL1 G2 (Homo sapiens, UniProt O14791, DEL388-389)
- Sequence (O14791 with tags, fused parts or gaps DEL388-389): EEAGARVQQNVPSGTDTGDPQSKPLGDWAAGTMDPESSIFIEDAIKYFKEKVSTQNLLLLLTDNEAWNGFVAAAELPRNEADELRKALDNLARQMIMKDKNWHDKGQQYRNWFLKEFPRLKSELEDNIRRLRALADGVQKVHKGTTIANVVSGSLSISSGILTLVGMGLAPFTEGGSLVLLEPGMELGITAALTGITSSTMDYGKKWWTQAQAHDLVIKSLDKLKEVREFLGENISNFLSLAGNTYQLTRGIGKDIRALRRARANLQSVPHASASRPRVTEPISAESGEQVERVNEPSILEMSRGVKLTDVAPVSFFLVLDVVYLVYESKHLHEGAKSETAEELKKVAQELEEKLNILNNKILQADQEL
- protocol_description: Rescue of HEK293 cell death caused by overexpression of APOL1 (CellTiter-Glo luminescence), HEK293/T-REx APOL1 G2/clone #2
- condition_context: reversal of cell death caused by overexpression of APOL1; geometric mean of at least 2 assay runs, † = single assay run (technical duplicate)
test_readout: log10 of EC50 (log10 of the value in nM)
Reminder: these figures are log10 of reported EC50, in nM before transformation.

C[C@@H]1C[C@H](COc2ccc(S(=O)(=O)CCO)cc2)CN1CCc1cc(Cl)cc(C#N)c1 = 1.48
CN(c1ccc(OC[C@@H](O)CNCCc2cc(Cl)cc(Cl)c2)cc1)S(C)(=O)=O = 3.02
C[C@@H]1CN(CCc2cccc(Cl)c2)C[C@H]1COc1ccc(S(C)(=O)=O)cc1 [Compound 133] = 2.13
CN=S(C)(=O)c1ccc(OC[C@@H]2CN(CCc3cc(Cl)cc(C#N)c3)CCN2)cc1 (single isomer, unassigned) [Compound 188] = 2.48

Hey, can you go through the list below and give me log10 of EC50 for every item?
1. C[C@@H]1C[C@H](COc2ccc(S(=O)(=O)CCCS(C)(=O)=O)cc2)CN1CCc1cccc(C#N)c1
2. CC(CN1C[C@@H](COc2ccc(S(C)(=O)=O)cc2)C[C@H]1C)c1cc(Cl)cc(C#N)c1 (single isomer, unassigned) [Compound 142]
3. CC1CC(COc2ccc(S(C)(=O)=O)cc2)CN1CCc1cc(Cl)cc(C#N)c1 (single isomer, unassigned) [Compound 200]
4. C[C@@H]1CN(CCc2cccc(Cl)c2)C[C@H]1COc1ccc(S(=O)(=O)CCO)cc1 (single isomer, unassigned)
5. CC(CN1C[C@@H](COc2ccc(S(C)(=O)=O)cc2)[C@H](C)C1)c1cc(Cl)cc(C#N)c1 (single isomer, unassigned) [Compound 148]
6. CN(c1ccc(OC[C@H](O)CN2CCC(c3cccc(Cl)c3)C2(C)C)cc1)S(C)(=O)=O (single isomer, unassigned) [Compound 72]
7. CN=S(C)(=O)c1ccc(OC[C@H]2C[C@@H](C)N(CCc3cccc(C#N)c3)C2)cc1 (some centres unmarked) [Compound 157]

A.
1: 1.45; 2: 2.12; 3: 3.30; 4: 3.03; 5: 1.91; 6: 3.09; 7: 1.59

# compound CN(c1ccc(NCC(O)CNCCc2cccc(Cl)c2)cc1)S(C)(=O)=O (single isomer, unassigned) [Compound 106] ; its log10 of EC50 = 3.80
